Data provenance: ChEMBL document CHEMBL4376859

fold change (FC) values, listed per item
target: Putative nitroreductase (Staphylococcus saprophyticus subsp. saprophyticus (strain ATCC 15305 / DSM20229 / NCIMB 8711 / NCTC 7292 / S-41), UniProt Q4A0P1); assay: Substrate activity at Staphylococcus saprophyticus nitroreductase NtrB assessed as Kcat/Km using NADH as cofactor in Tris-Cl buffer at pH 7.5 by HPLC analysis relative to CB1954/NfsB; format: ADME
Sequence (Q4A0P1 whole entry): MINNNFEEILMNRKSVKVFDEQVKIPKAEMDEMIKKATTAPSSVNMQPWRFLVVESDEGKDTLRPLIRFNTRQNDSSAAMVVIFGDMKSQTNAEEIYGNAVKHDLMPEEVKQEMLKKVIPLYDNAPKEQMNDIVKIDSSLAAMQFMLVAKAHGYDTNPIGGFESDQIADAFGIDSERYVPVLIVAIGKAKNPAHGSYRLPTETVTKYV
# output: bare number, no unit

Answered examples (2):
CCC(=O)Nc1cc(N2CCOCC2)c([N+](=O)[O-])cc1[N+](=O)[O-]    4.73
Nc1ccccc1Nc1ccc([N+](=O)[O-])cc1[N+](=O)[O-]    0.41

Ask | # get_value(readout='fold change (FC)', item= `O=[N+]([O-])c1cc([N+](=O)[O-])c(Nc2ccc(S(=O)(=O)O)cc2)cc1Nc1ccc(S(=O)(=O)O)cc1` )
Reply | 2.37
